- Test system: mouse
- Assay Method Text: Angiogenesis action in vivo examined by DAS assay (microcell embedded in the back of mouse)
- Particulars: peptide 10 μg/ml in DMEM injected into microcell in back of mouse, observed five days later
Property Measured: Angiogenesis Magnitude (number of newly formed spiral blood vessels)

substance="SVVYGL (Oligopeptide having angiogenic activity) [Example 13]" result="M5 (M5 means 41 to 50)"
substance="VVYGLR (Oligopeptide having angiogenic activity) [Example 14]" result="M5 (M5 means 41 to 50)"
substance="AGP: heptapeptide (angiogenic peptide) having the amino acid sequence shown in SEQ ID NO: 1 (SVVYGLR; Oligopeptide having angiogenic activity)" result="M5 (M5 means 41 to 50)"
